system: U-251; assay: NCI tumour cell line growth inhibition, 48 h
Activity calls are given as the source filed them. No stated cut-off is given here; in the data, active = GI50 up to about 1.1 µM and inactive = higher.
Permitted responses: true = active, false = inactive

Cc1ccc(CC(C)N)cc1 (stereo unspecified) : false

INPUT: Could you kindly confirm the outcome this assay logged for CCOC1c2cc(C(C)C)c(O)c(O)c2[C@@]23CCCC(C)(C)C2C1OC3=O (stereo partly specified) ?
OUTPUT: false

INPUT: Could you kindly confirm the outcome this assay logged for C1=C\CCCCN2C[C@H]3CCCC/C=C\CCCCN4CC[C@@H]([C@H](CCCCCC/1)C4)[C@H](C3)C2 ?
OUTPUT: false

INPUT: Could you kindly confirm the outcome this assay logged for CN1CC[C@@H](c2c(O)cc(O)c3c(=O)cc(-c4ccccc4Cl)oc23)[C@@H](O)C1 ?
OUTPUT: true

INPUT: Could you kindly confirm the outcome this assay logged for CC(=O)Oc1cc(OC(C)=O)c(OC(C)=O)c2c1CC1C(=O)C3(CCc4ccccc43)C(=O)C1C2 (stereo unspecified) ?
OUTPUT: false

INPUT: Could you kindly confirm the outcome this assay logged for CC1(C)C2CC(O)C1CCC2=O (stereo unspecified) ?
OUTPUT: false
